- protocol details: anti-His antibody binders, primary screen, artefact control for SMM control protein annotation, biochemical, small-molecule microarray, 635 nm fluorescence (AID 1128);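 further: score merges feature fluorescence with signal-to-noise for each printed compound spot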
- reported conditions: anti-His Alexa647 antibody binding, higher = more signal
property measured: composite z-score
Numbers only.

These solved cases illustrate the format of a correct answer.
[
  {
    "compound": "CO[C@@H]1COC(=O)[C@@H]2CCCN2C(=O)[C@@H](C)COC(=O)CC=C[C@H]1C",
    "composite z-score": 0.408
  },
  {
    "compound": "CO[C@H]1COC(=O)CC=C[C@H](C)[C@@H](OC)COC(=O)[C@@H](C)COC(=O)CC=C[C@@H]1C",
    "composite z-score": -0.756
  },
  {
    "compound": "COc1ccc(O[C@H]2C=C[C@@H](c3ccccc3)O[C@@H]2COC(=O)CCC(C)=NOC[C@@H](O)[C@H]2O[C@@H]3OC(C)(C)O[C@@H]3[C@H]2O)cc1",
    "composite z-score": 0.977
  }
]

# return composite z-score for each item in the list
1. CCOC(=O)[C@H](CC(C)C)NC(=O)CCC1CC(OC(=O)NCCc2ccc(F)cc2)CC2(CCCC(COC(=O)NCC(c3ccccc3)c3ccccc3)O2)O1 (some centres not stated)
2. O=C1[C@H]2[C@H]3[C@H](O)[C@H](O)CC(=NOC[C@@H](O)COCc4ccco4)[C@H]3CC[C@H]2C(=O)N1c1ccc(F)cc1F
3. CCOC(=O)[C@H](CC(C)C)NC(=O)CCC1CC(OC(=O)NCc2ccc3c(c2)OCO3)CC2(CCCC(COC(=O)NCCCN3CCCC3=O)O2)O1 (some centres not stated)

Result:
0.59
-0.385
0.581

# return composite z-score for each item in the list
1. CCOC(=O)[C@H](Cc1ccccc1)NC(=O)CCC1CC(OC(=O)NCCc2ccc(F)cc2)CC2(CCCC(COC(=O)NCCc3ccc(Cl)cc3)O2)O1 (some centres not stated)
2. CCOC(=O)[C@H](CC(C)C)NC(=O)CCC1CC(OC(=O)NCc2cccc3ccccc23)CC2(CCCC(COC(=O)NCc3cccc(C(F)(F)F)c3)O2)O1 (some centres not stated)
3. CCOC(=O)[C@H](Cc1ccccc1)NC(=O)OC1CC(CCC2CC(CC)=NO2)OC2(CCCC(COC(=O)NCCC(C)C)O2)C1 (some centres not stated)
4. CCOC(=O)[C@H](Cc1ccccc1)NC(=O)CCC1CC(OC(=O)NCCc2ccc(F)cc2)CC2(CCCC(COC(=O)NCCc3ccccc3OC)O2)O1 (some centres not stated)
5. O=C(NN=C1C[C@@H](O)[C@@H](O)[C@@H]2[C@@H]3C(=O)N(Cc4ccccc4)C(=O)[C@@H]3CC[C@@H]12)OCc1ccccc1
6. CON=C(C)CCC(=O)OC[C@H]1O[C@H](c2ccccc2)C=C[C@@H]1Oc1ccc(OC)cc1
7. COC(=O)CC=C[C@@H](C)[C@@H](C=NOCC[C@@H]1C=C[C@H](OC(C)=O)[C@@H](COC(C)=O)O1)NS(=O)(=O)c1ccc(C)cc1
8. CCCCc1nc2c(c3c1C[C@H](C)OC3)CN(CCOc1ccccc1)CC2

Result:
[1.03, -0.206, 0.272, 0.949, 0.298, 1.25, 2.34, 0.818]

# return composite z-score for each item in the list
1. CCOC(=O)[C@H](Cc1ccccc1)NC(=O)CCC1CC(OC(=O)NCc2cccc3ccccc23)CC2(CCCC(COC(=O)NCc3ccccc3)O2)O1 (some centres not stated)
2. CCOC(=O)CCN1C(=O)[C@H]2[C@H]3[C@H](O)[C@H](O)CC(=NOCc4ccccc4)[C@H]3CC[C@H]2C1=O
3. COC(=O)[C@@H]1CC[C@H](C)[C@@H](c2ccc(C)cc2)N1C(=O)c1ccc(C=NOC[C@@H](C)[C@H](OCc2ccccc2)C(C)C)cc1

Result:
[-0.198, 0.0669, 0.336]

// provenance: PubChem BioAssay
